- Test system: RAW264.7
- RUN DESCRIPTION: Antiosteoclast activity in mouse RAW264.7 cells assessed as inhibition of RANKL-induced osteoclast differentiation at 20 uM after 5 days by TRAP assay
- Format: functional
- TEST PARAMETERS: RAW264.7, 120 h
Kindly supply the reported inhibition at 20 µM values for the records listed here.
I'd appreciate it if you wrote the number followed by its unit.

State the recorded inhibition at 20 µM for every item in the following list.
1. Cn1cnc(S(=O)(=O)n2cc3c(n2)C(C)(C)[C@H]2CC[C@@]4(C)[C@@H](CC=C5[C@H]6CC(C)(C)CC[C@@]6(C(=O)NC6CCN(Cc7ccccc7)CC6)CC[C@@]54C)[C@]2(C)C3)c1
2. CC1(C)CC[C@]2(C(=O)NC3CCN(Cc4ccccc4)CC3)CC[C@]3(C)C(=CC[C@@H]4[C@@]5(C)Cc6cnoc6C(C)(C)[C@@H]5CC[C@]43C)[C@@H]2C1
3. CC1(C)CC[C@]2(C(=O)NC3CCN(Cc4ccccc4)CC3)CC[C@]3(C)C(=CC[C@@H]4[C@@]5(C)Cc6cn(S(=O)(=O)c7ccc(Cl)cc7)nc6C(C)(C)[C@@H]5CC[C@]43C)[C@@H]2C1

A.
100%
99.6%
41.3%
